IC50 overview
target_under_test: affinity purified β2GPI-dependent antiphospholipid antibody
procedure_details: Competitive inhibition ELISA: recombinant β2GPI proteins compete for antibody binding to coated full length recombinant β2GPI
Design: species or system human
experimental_setup: Ab 6203; read-out: 50% (concentration to give 50% inhibition)

Below, 2 molecules whose answers are already recorded.
molecule	IC50
123--: recombinant β2GPI deletion mutant with domains 1, 2, 3 (protein) GRTCPKPDDLPFSTVVPLKTFYEPGEEITYSCKPGYVSRGGMRKFICPLTGLWPINTLKCTPRVCPFAGILENGAVRYTTFEYPNTISFSCNTGFYLNGADSAKCTEEGKWSPELPVCAPIICPPPSIPTFATLRVYKPSAGNNSLYRDTAVFECLPQHAMFGNDTITCTTHGNWTKLPECGHHHHHH	1 µM
1----: recombinant β2GPI protein with domain 1 only (SEQ ID NO:4 region), His6 tail (protein) GRTCPKPDDLPFSTVVPLKTFYEPGEEITYSCKPGYVSRGGMRKFICPLTGLWPINTLKCTPRVGHHHHHH	> 10 µM

Attention now shifts to the item below.
# get_value(readout='IC50', item= 1234-: recombinant β2GPI deletion mutant with domains 1, 2, 3, 4 (protein) GRTCPKPDDLPFSTVVPLKTFYEPGEEITYSCKPGYVSRGGMRKFICPLTGLWPINTLKCTPRVCPFAGILENGAVRYTTFEYPNTISFSCNTGFYLNGADSAKCTEEGKWSPELPVCAPIICPPPSIPTFATLRVYKPSAGNNSLYRDTAVFECLPQHAMFGNDTITCTTHGNWTKLPECREVKCPFPSRPDNGFVNYPAKPTLYYKDKATFGCHDGYSLDGPEEIECTKLGNWSAMPSCGHHHHHH )
> 8 µM
